- System Under Test: the molecule itself
- Assay Summary: cross-linking
Assay Metric: stoichiometry N
Numbers only.

Please review the entries below; each comes with its answer.
• Myc-hFis1[32-152]-Y87A (domain or fragment, human, UniProt Q9Y3D6 32-152, looked up) KSTQFEYAWCLVRSKYNDDIRKGIVLLEELLPKGSKEEQRDYVFYLAVGNYRLKEAEKALKYVRGLLQTEPQNNQAKELERLIDKAMKKDGLVGMAIVGGMALGVAGLAGLIGLAVSKSKS = 2
• Fis/OMP (other, UniProt Q9Y3D6 1-120, looked up) MEAVLNELVSVEDLLKFEKKFQSEKAAGSVSKSTQFEYAWCLVRSKYNDDIRKGIVLLEELLPKGSKEEQRDYVFYLAVGNYRLKEYEKALKYVRGLLQTEPQNNQAKELERLIDKAMKKPIFMVLVPVFALTMVAAWAFMRYRQQL = 2
• Myc-hFis1[92-152] (domain or fragment, human, UniProt Q9Y3D6 92-152, looked up) KYVRGLLQTEPQNNQAKELERLIDKAMKKDGLVGMAIVGGMALGVAGLAGLIGLAVSKSKS = 2

Lab note: next protein to report on.
Any idea what its stoichiometry N is? The protein is Myc-hFis1[32-152] (domain or fragment, human, UniProt Q9Y3D6 32-152, looked up) KSTQFEYAWCLVRSKYNDDIRKGIVLLEELLPKGSKEEQRDYVFYLAVGNYRLKEYEKALKYVRGLLQTEPQNNQAKELERLIDKAMKKDGLVGMAIVGGMALGVAGLAGLIGLAVSKSKS 5
